test-description: Stability in human hepatocytes assessed as parent compound remaining at 10 uM measured after 60 mins by UPLC analysis
Type: ADME, cell-based, Hepatocyte
conditions: read-out: Stability

[
  {
    "chem-smiles": "C#CCOc1ncc(F)c(OCC#C)n1",
    "remaining at 1 h, 10 µM": "> 99%"
  }
]

---

test-description: Mean residence time in female Wistar Han rat at 1000 mg/kg, po administered as single dose measured upto 24 hrs
Assay type: ADME, organism-based
conditions: in vivo

[
  {
    "chem-smiles": "C#CCOc1ncc(F)c(OCC#C)n1",
    "unit-name": "h",
    "MRT": 13.4
  }
]

---

test-description: Cmax in male Wistar Han rat at 10 mg/kg, po administered as single dose measured upto 24 hrs
Format: ADME, organism-based
Set-up: time < 24 hrs, dose 10 mg/kg, route po
conditions: in vivo

[
  {
    "chem-smiles": "C#CCOc1ncc(F)c(OCC#C)n1",
    "Cmax [ng/mL]": 3610
  }
]

---

test-description: Mean residence time in male Wistar Han rat at 1 mg/kg, iv administered as single dose measured upto 24 hrs
Assay type: ADME, organism-based
conditions: in vivo

[
  {
    "chem-smiles": "C#CCOc1ncc(F)c(OCC#C)n1",
    "MRT": "34.1 min"
  }
]

---

test-description: AUC (0 to infinity) in female Wistar Han rat at 1000 mg/kg, po administered as single dose measured upto 24 hrs
Format: ADME, organism-based
Parameters: time < 24 hrs, dose 1000 mg/kg, route po
conditions: in vivo

[
  {
    "chem-smiles": "C#CCOc1ncc(F)c(OCC#C)n1",
    "unit-name": "µg·h/mL",
    "AUC(0-inf)": 1470
  }
]

---

test-description: Tmax in male Wistar Han rat at 1000 mg/kg, po administered as single dose measured upto 24 hrs
Assay type: ADME, organism-based
conditions: in vivo
value-kind: Tmax

[
  {
    "chem-smiles": "C#CCOc1ncc(F)c(OCC#C)n1",
    "assay-value": "1 h"
  }
]
